- target of assay: recombinant human PKM2 (Homo sapiens, UniProt P14618)
- Construct: His (N); purchased R&D Systems
- Sequence (P14618 2-531 limits assumed): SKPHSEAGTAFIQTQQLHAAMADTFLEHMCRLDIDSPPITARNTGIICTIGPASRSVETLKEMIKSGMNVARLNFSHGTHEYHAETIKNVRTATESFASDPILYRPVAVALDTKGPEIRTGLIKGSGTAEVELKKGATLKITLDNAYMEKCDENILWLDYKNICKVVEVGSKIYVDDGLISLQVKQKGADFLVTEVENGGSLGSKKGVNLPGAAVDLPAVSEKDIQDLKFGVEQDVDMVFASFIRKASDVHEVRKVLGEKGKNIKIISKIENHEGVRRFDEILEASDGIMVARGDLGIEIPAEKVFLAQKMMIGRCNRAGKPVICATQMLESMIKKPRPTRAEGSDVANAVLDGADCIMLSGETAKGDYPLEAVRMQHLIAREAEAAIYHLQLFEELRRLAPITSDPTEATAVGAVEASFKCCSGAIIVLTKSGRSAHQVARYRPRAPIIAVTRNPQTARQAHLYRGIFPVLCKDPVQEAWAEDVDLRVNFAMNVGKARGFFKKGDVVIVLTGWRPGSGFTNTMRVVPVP
- assay overview: Human PKM2 activation assay (Kinase-Glo Plus luminescent detection of generated ATP)
- Type: biochemical
- run conditions: percentage activation normalised to DMSO vehicle (LOW) and 5 μM TEPP-46 (HIGH); read-out: hPKM2 Emax
property: Emax (%)

molecule="COc1ccc(Cn2ncc3cc([S@@](=N)(=O)c4ccc(OC(F)F)cc4)ccc3c2=O)cn1 (single isomer, unassigned)" target_of_assay="recombinant human PKM2 (Homo sapiens, UniProt P14618)" quantitative_readout=97.2
molecule=Cc1nc(S(=O)(=O)c2ccc3c(=O)n(Cc4cc[nH]n4)ncc3c2)cs1 target_of_assay="recombinant human PKM2 (Homo sapiens, UniProt P14618)" quantitative_readout=99.6
molecule=O=c1c2ccc(S(=O)(=O)c3ccccc3)cc2cnn1Cc1ccn(C2COC2)n1 target_of_assay="recombinant human PKM2 (Homo sapiens, UniProt P14618)" quantitative_readout=112
molecule=Cc1ccc(S(=O)(=O)c2ccc3c(=O)n(Cc4cccc(N)c4)ncc3c2)s1 target_of_assay="recombinant human PKM2 (Homo sapiens, UniProt P14618)" quantitative_readout=115
molecule=COc1ccc(Cn2ncc3cc(S(=O)(=O)c4ccccc4)ccc3c2=O)c(C(N)=O)n1 target_of_assay="recombinant human PKM2 (Homo sapiens, UniProt P14618)" quantitative_readout=95.5
molecule=COc1ccc(S(=O)(=O)c2ccc3c(=O)n(CCc4ccccc4)ncc3c2)cc1 target_of_assay="recombinant human PKM2 (Homo sapiens, UniProt P14618)" quantitative_readout=63
molecule=COc1ccc(Cn2ncc3cc(S(=O)(=O)c4ccc(C)s4)ccc3c2=O)cn1 target_of_assay="recombinant human PKM2 (Homo sapiens, UniProt P14618)" quantitative_readout=82.3
molecule=COc1ccc(S(=O)(=O)c2ccc3c(=O)n(Cc4ccncc4O)ncc3c2)cc1 target_of_assay="recombinant human PKM2 (Homo sapiens, UniProt P14618)" quantitative_readout=103
molecule=O=c1c2ccc(S(=O)(=O)c3cc[nH]n3)cc2cnn1Cc1cccc(C2CC2)n1 target_of_assay="recombinant human PKM2 (Homo sapiens, UniProt P14618)" quantitative_readout=104
molecule=COc1ccc(S(=O)(=O)c2ccc3c(=O)n(Cc4cccc(OC(F)F)c4)ncc3c2)cc1 target_of_assay="recombinant human PKM2 (Homo sapiens, UniProt P14618)" quantitative_readout=90
molecule=COc1ccc(S(=O)(=O)c2ccc3c(=O)n(Cc4c(F)cc(OC)cc4F)ncc3c2)cc1 target_of_assay="recombinant human PKM2 (Homo sapiens, UniProt P14618)" quantitative_readout=89.2
molecule=COc1ccc(S(=O)(=O)c2ccc3c(=O)n(Cc4cccnc4)ncc3c2)cc1 target_of_assay="recombinant human PKM2 (Homo sapiens, UniProt P14618)" quantitative_readout=103
molecule=COc1ccc(S(=O)(=O)c2ccc3c(=O)n(Cc4ccc(C)nc4O)ncc3c2)cc1 target_of_assay="recombinant human PKM2 (Homo sapiens, UniProt P14618)" quantitative_readout=82
molecule=COc1ncccc1Cn1ncc2cc(S(=O)(=O)c3cn[nH]c3)ccc2c1=O target_of_assay="recombinant human PKM2 (Homo sapiens, UniProt P14618)" quantitative_readout=72.7
molecule=COc1ccc(S(=O)(=O)c2ccc3c(=O)n(Cc4ccc(Cl)cc4F)ncc3c2)cc1 target_of_assay="recombinant human PKM2 (Homo sapiens, UniProt P14618)" quantitative_readout=76
molecule=COc1ccc(Cn2ncc3cc(S(=O)(=O)c4ccccc4OC)ccc3c2=O)cn1 target_of_assay="recombinant human PKM2 (Homo sapiens, UniProt P14618)" quantitative_readout=107
molecule=Cc1cc(Cn2ncc3cc(S(=O)(=O)c4cnn(C(F)F)c4)ccc3c2=O)n[nH]1 target_of_assay="recombinant human PKM2 (Homo sapiens, UniProt P14618)" quantitative_readout=108
